All values here come from patent US12643893B2.

# key: entry, value: Peak to peak potential difference (ΔEp)
assay: Cyclic voltammetry (CV) in three-electrode cells; type: physicochemical; details: 1st event (or only value); after 100 cycles (in parentheses)
Just the number please, in mV, no unit attached.

Past entries and their recorded results:
Cc1cc(-c2nc3ccccc3s2)cc(C)[n+]1C : 81
CCCCCC[n+]1ccc(-c2nc3ccccc3s2)cc1 : 124
COCC[n+]1ccc(-c2nc3ccccc3s2)cc1 : 107

Next item in the queue.
Request: Can you look up the measured Peak to peak potential difference (ΔEp) of `CCCCCCCCCC[n+]1ccc(-c2nc3ccccc3s2)cc1` for me?
Result: 102

====

# key: entry, value: solubility
assay: Solubility test (UV-vis calibration curves, maximum solubility); conditions: MeCN, organic solvent or mixture, thermodynamic from solid, Solubility (M) in MeCN, in MeCN

Request: Can you look up the measured solubility of `CCCCCCCCCC[n+]1ccc(-c2nc3ccccc3s2)cc1` for me?
Result: 0.07 M

Request: Further, for `c1ccc2sc(-c3cc[n+](CCCCC[n+]4ccc(-c5nc6ccccc6s5)cc4)cc3)nc2c1` ?
Result: 0.1 M

Request: Further, for `COCC[n+]1ccc(-c2nc3ccccc3s2)cc1` ?
Result: 0.1 M

Request: Further, for `CCCCCC[n+]1ccc(-c2nc3ccccc3s2)cc1` ?
Result: 0.23 M

====

assay: Cyclic voltammetry (CV) in three-electrode cells; type: physicochemical; conditions: 2nd redox event; 10 mM in 0.1 M TBABF4/MeCN
REPORTED ENDPOINT: Formal potential (E^o′)

Past entries and their recorded results:
CCCCCCCCCC[n+]1ccc(-c2nc3ccccc3s2)cc1 [Dec-BTP^+·BF4^−] : 2nd = −1.96 V vs. Fc/Fc^+
Cc1cc(-c2nc3ccccc3s2)cc(C)[n+]1C [DiMe-BTP^+·BF4^−] : 2nd = −1.94 V vs. Fc/Fc^+
CCCCCC[n+]1ccc(-c2nc3ccccc3s2)cc1 [Hex-BTP^+·BF4^−] : 2nd = −2.13 V vs. Fc/Fc^+

Next item in the queue.
Request: Can you look up the measured Formal potential (E^o′) of COCC[n+]1ccc(-c2nc3ccccc3s2)cc1 [MOE-BTP^+·BF4^−] for me?
Result: 2nd = −1.97 V vs. Fc/Fc^+

====

test: Cyclic voltammetry (CV) in three-electrode cells; format: physicochemical; conditions: 1st event (or only value); initial; 10 mM in 0.1 M TBABF4/MeCN
# key: entry, value: Ratio of anodic peak current (Ipa) to cathodic peak current (Ipc) (Ipa/Ipc) @50 mV s^−1
Reply: number alone, nothing else.

Cc1cc(-c2nc3ccccc3s2)cc(C)[n+]1C [DiMe-BTP^+·BF4^−] : 0.89
COCC[n+]1ccc(-c2nc3ccccc3s2)cc1 [MOE-BTP^+·BF4^−] : 1.00
C[n+]1ccc(-c2nc3ccccc3o2)cc1 [BOP^+·BF4^−] : 0.79
CCCCCCCCCC[n+]1ccc(-c2nc3ccccc3s2)cc1 [Dec-BTP^+·BF4^−] : 0.93

Request: Can you look up the measured Ratio of anodic peak current (Ipa) to cathodic peak current (Ipc) (Ipa/Ipc) @50 mV s^−1 of CCCCCC[n+]1ccc(-c2nc3ccccc3s2)cc1 [Hex-BTP^+·BF4^−] for me?
Result: 0.98

Request: Further, for Cn1c(-c2cc[n+](C)cc2)nc2ccccc21 [BIP^+·BF4^−] ?
Result: 0.71
